Data origin, for the record: the array DNA melting data of Ke et al. (doi:10.1101/2024.01.08.574731)

Experiment: melting temperature; fluorescence melt of hairpins on a sequencing array, two-state fit, raised by 9.35 °C to match UV melts
Details: sodium 0.088 M
Rule: Tm below 50 °C gives yes. Equal to or above 50 °C gives no.

{"sequence_data": "GGAACCGAAAGGTAATCC ((((((....)))..)))", "label_value": "yes"}
{"sequence_data": "GGGGTTGGAAACGACCTC (.(((.(....).))).)", "label_value": "yes"}
{"sequence_data": "GATCTCACCCGAGATC ((((((....))))))", "label_value": "no"}
{"sequence_data": "GGGGGCGAAAGCCGACCC ((((((....)))..)))", "label_value": "no"}
{"sequence_data": "GTAGCCGAAAGGCGGTAC ((((((....)))..)))", "label_value": "yes"}
{"sequence_data": "GTGATAGGAAACTATTAC ((.((((....)))).))", "label_value": "yes"}
{"sequence_data": "GAGAACGAAAGTTCTC ((((((....))))))", "label_value": "no"}
{"sequence_data": "GTTGTCGAAAGACGAAAC ((((((....)))..)))", "label_value": "yes"}
{"sequence_data": "GGGGTAGGAAACTACTCC ((.((((....)))).))", "label_value": "yes"}
{"sequence_data": "GACCCCGAAAGGGTGTC ((((((....))).)))", "label_value": "no"}
{"sequence_data": "GACTCGGGAAACCGAACC (..((((....))))..)", "label_value": "yes"}
{"sequence_data": "GATCTACGGCTAGATC ((((((....))))))", "label_value": "yes"}
{"sequence_data": "GCGGTCACCCGC ((((....))))", "label_value": "no"}
{"sequence_data": "GGTCGCGAAAGCGGAACC ((((((....)))..)))", "label_value": "yes"}
{"sequence_data": "GAGGGAGCGAAAGCTCTC (((..(((....))))))", "label_value": "yes"}
{"sequence_data": "GGACCTCGAAAGAGTTCC (((.(((....))).)))", "label_value": "yes"}
{"sequence_data": "GGCTGCCGAAAGGCCGCC (((.(((....))).)))", "label_value": "no"}
{"sequence_data": "GGCAAGCCGAAAGGCGCC (((..(((....))))))", "label_value": "no"}
{"sequence_data": "GCGGGGCGAAAGCCAAGC ((..(((....)))..))", "label_value": "no"}
{"sequence_data": "GGCGGCGAAAGCCACGCC ((((((....)))..)))", "label_value": "no"}
{"sequence_data": "GATCACCTAAGTGATC ((((((....))))))", "label_value": "no"}
{"sequence_data": "GATCCCTTCGGGATC ((((((...))))))", "label_value": "no"}
{"sequence_data": "GCGTCAGCACGC ((((....))))", "label_value": "no"}
{"sequence_data": "GGGGACGGAAACGTTCCC (((.(((....))).)))", "label_value": "no"}
{"sequence_data": "GGGAGCCGAAAGGCACCC (((.(((....))).)))", "label_value": "no"}
{"sequence_data": "GCCCTAGGAAACTAAGGC (((.(((....))).)))", "label_value": "yes"}
{"sequence_data": "GGCTACGAAAGTAATGCC ((((((....)))..)))", "label_value": "yes"}
{"sequence_data": "GCCTTGCGAAAGCAACGC ((.((((....)))).))", "label_value": "no"}
{"sequence_data": "GTTGTACGAAAGTATAAC (((.(((....))).)))", "label_value": "yes"}
{"sequence_data": "GTATCCCGAAAGGGCTAC (((.(((....))).)))", "label_value": "yes"}
{"sequence_data": "GCGGAATTCCGC ((((....))))", "label_value": "no"}
{"sequence_data": "GTAAGAGGAAACCCTTAC (((((.(....).)))))", "label_value": "yes"}
{"sequence_data": "GGGTTCGGAAACGGACTC (.((.((....)).)).)", "label_value": "yes"}
{"sequence_data": "GCTTAGCGAAAGCCAAGC ((((.((....)).))))", "label_value": "no"}
{"sequence_data": "GCGTTGTCACGC ((((....))))", "label_value": "no"}
{"sequence_data": "GGTACCGAAAGGTGAACC ((((((....)))..)))", "label_value": "yes"}
{"sequence_data": "GTTGATACGAAAGTAAAC (((..(((....))))))", "label_value": "yes"}
{"sequence_data": "GATCTCGCGGGAGATC ((((((....))))))", "label_value": "no"}
{"sequence_data": "GATCCTCAGAGGATC ((((((...))))))", "label_value": "no"}
